Assay Remarks: Lipophilicity, log P of the compound
Format: physicochemical
Test Context: octanol/water; read-out: logP
Listed below: logP values for each entry.

The reported logP of the compound C[C@H](CCC(=O)NN1CCN(C)CC1)[C@H]1CC[C@H]2[C@@H]3[C@H](O)C[C@@H]4C[C@H](O)CC[C@]4(C)[C@H]3C[C@H](O)[C@]12C was 2.16

The reported logP of the compound C[C@H](CCC(=O)NN1CCN(C)CC1)[C@H]1CC[C@H]2[C@@H]3[C@H](O)C[C@@H]4C[C@H](O)CC[C@]4(C)[C@H]3CC[C@]12C was 3.26

The reported logP of the compound C[C@H](CCC(=O)N1CCN(C/C=C/c2ccccc2)CC1)[C@H]1CC[C@H]2[C@@H]3[C@H](O)C[C@@H]4C[C@H](O)CC[C@]4(C)[C@H]3CC[C@]12C was 5.81

The measurements presented in this section are drawn from ChEMBL document CHEMBL1177854.
